Taken from the RNAGym collection of RNA variant scans (doi:10.1073/pnas.2313332121).

B1: TPR t1 (parent)
chain: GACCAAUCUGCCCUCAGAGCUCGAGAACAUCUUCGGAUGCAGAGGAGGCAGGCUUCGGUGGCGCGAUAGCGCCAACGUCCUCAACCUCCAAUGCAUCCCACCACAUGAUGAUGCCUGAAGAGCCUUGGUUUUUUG

- Variants of: B1
- experiment-description: polymerase ribozyme fitness, log enrichment relative to wild type (log ratio); higher = more active; in vitro selection for triplet polymerase activity
Binary call on polymerase ribozyme fitness (log ratio): Yes from -1 upward, No beneath that.

## Input Quick check: does U78C C123A have polymerase ribozyme fitness (log ratio) greater than or equal to -1?
## Output Yes

## Input Quick check: does C13G G71U have polymerase ribozyme fitness (log ratio) greater than or equal to -1?
## Output No

## Input Quick check: does G42C C72A have polymerase ribozyme fitness (log ratio) greater than or equal to -1?
## Output No

## Input Quick check: does A6U G10U C12U C15G C72G C86A have polymerase ribozyme fitness (log ratio) greater than or equal to -1?
## Output No

## Input Quick check: does G36A A43C C73G have polymerase ribozyme fitness (log ratio) greater than or equal to -1?
## Output No
